What Cell viability (% of control) was measured for each of the following?
Test system: Hep G2 cells
protocol-text: Cell viability, MTT colorimetric assay
Format: cell-based
experimental-setup: Hep G2, 48 h, 75 micro molar
Marks after values point to notes of the source that are not given here.

input: Reported Cell viability (% of control) for COc1cc([C@H]2Oc3cc([C@H]4Oc5cc(O)cc(O)c5C(=O)[C@@H]4O)ccc3O[C@@H]2CO)ccc1O : what is it?
output: 89 + 11.4 % of control

input: Next record, please: COc1cc([C@H]2Oc3cc([C@H]4Oc5cc(O)cc(O)c5C(=O)[C@@H]4OC(=O)c4cc(O)c(O)c(O)c4)ccc3O[C@@H]2CO)ccc1O
output: 73 + 10.7^* % of control

input: Next record, please: COc1cc([C@@H]2Oc3cc([C@H]4Oc5cc(O)cc(O)c5C(=O)[C@@H]4OC(=O)c4cc(O)c(O)c(O)c4)ccc3O[C@H]2CO)ccc1O
output: 65 + 8.6^* % of control

input: Next record, please: COc1cc([C@@H]2Oc3cc([C@H]4Oc5cc(O)cc(O)c5C(=O)[C@@H]4O)ccc3O[C@H]2CO)ccc1O
output: 81 + 10.7^* % of control
